# TARGET: SARS-CoV-2 S on pseudovirions (Wuhan Hu-1 / IL1/2020, last 18 amino acids removed) (SARS-CoV-2, UniProt P0DTC2 14-1273)
# MEASUREMENT_NOTES: cell-based or functional assay
MEASURED_METRIC: Mean IC80, pSV neutralization

Item under review: COV_2064 (antibody, V domains shown, human IgG1) VH: EVQLVESGGGLVQPGGSLRLSCTASGFTFNNNWMHWVRQVPGKGLVWVSRINTDESSTSYADSVKGRFIISRDNAKNTLYLQMNSLRVEDTAVYYCARSTAQYDIWTGYYYYMDVWGKGTTVTVSS VL: DIQMTQSPSTLSASVGDRVTISCRASQSISTWLAWYQQKPGKAPNLLIYGASNLGSGVPSRFSGGGSGTEFTLTISSLQSDDFATYYCQRYNSFPYTFGQGTKLEIKR . Reported Mean IC80, pSV neutralization?
≥ 25 µg/ml

Item under review: COV_1032 (antibody, V domains shown, human IgG1) VH: QVHLQESGPGLVKPSETLSLTCTVSGGSISSYYWSWIRQPPGKGLEWIGYIYDSGSTNYNPSLKSRVTISVDTSKNQFSLKLSSVTAADTAVYYCARSVRGVTIDYWGQGTLVTVSS VL: DIQMTQSPSSLSASVGDRVTITCRASQSISNSISSYLNWYQKKPGKAPKLLIYAASSLQSGVPSRFSGSGSGTDFTLTISSLQPEDFATYYCQQSYSTPTTFGQGTKVEIKR . Reported Mean IC80, pSV neutralization?
≥ 25 µg/ml
